Each entry below carries its recorded GI50.
System: A549
Experiment: NCI tumour cell line growth inhibition, 48 h
Activity calls are given as the source filed them. Rule as the data show it: active = GI50 up to about 1.1 µM and inactive = higher.

Below, 4 compounds whose answers are already recorded.
Compound	GI50
Oc1c(O)c(Cc2ccccc2)c(Cc2ccccc2)c(Cc2ccccc2)c1Cc1ccccc1	> 10 µM (inactive)
CC(C)/C=C1\CCC(CN2CCOCC2)C1=O (stereo not given)	26.3 µM (inactive)
CC(=O)NC1C(OCc2ccccc2)OC(CO)C(O)C1OC(C)C(=O)N[C@@H](C)C(=O)N[C@H](CCC(=O)OCCNc1c2ccccc2nc2cccc([N+](=O)[O-])c12)C(N)=O (stereo not given in full)	0.00146 µM (active)
CCCCCCCCCCCOC(=S)NC(C)C	21.4 µM (inactive)

Switching to the query record.
Tested system A549; GI50 recorded for `O=c1nc2n(c3nsnc13)CCO2` was > 100 µM (inactive)

----------
Reported GI50 is given for each of the following molecules.
Tested on: IGROV-1
Assay: NCI tumour cell line growth inhibition, 48 h
The source made the active and inactive calls. No stated cut-off is given here; in the data, active = GI50 up to about 1.1 µM and inactive = higher.

Observe how each entry below is paired with its result.
Molecule	Target system	GI50
CCOC(=O)NC(=O)c1cn(CCCCCCOC(=O)NCCCCCCNC(=O)OCCCCCCn2cc(C(=O)NC(=O)OCC)c(=O)[nH]c2=O)c(=O)[nH]c1=O	IGROV-1	> 100 µM (inactive)
O=C1/C(=C\c2ccccc2)c2ccccc2N1Cc1ccccc1	IGROV-1	10.7 µM (inactive)

What the record says about NC(CCCCNC(=O)C(Cc1ccccc1)NC(=O)OCc1ccccc1)C(=O)NC(CCCCNC(=O)C(Cc1ccccc1)NC(=O)OCc1ccccc1)C(=O)NC(CCCCNC(=O)C(Cc1ccccc1)NC(=O)OCc1ccccc1)C(=O)NC(CCCCNC(=O)C(Cc1ccccc1)NC(=O)OCc1ccccc1)C(=O)NC(CCCCNC(=O)C(Cc1ccccc1)NC(=O)OCc1ccccc1)C(=O)NC(CCCCNC(=O)C(Cc1ccccc1)NC(=O)OCc1ccccc1)C(=O)O (configuration not stated) : GI50 is > 100 µM (inactive)

What the record says about `Cn1c(SCc2c[nH]c3ccccc23)nnc1-c1ccc(Cl)cc1Cl` : GI50 is 17.4 µM (inactive)

The recorded GI50 for entry CC(=O)N1C(OC(C)C)CC(C)N1c1ccccc1 (configuration not stated) equals > 10 µM (inactive)

The molecule CC(Oc1ccccc1)C(=O)NNC(=O)OC(C)(C)C (configuration not stated) showed GI50 equal to > 100 µM (inactive)

Lab note: measured GI50 of `Cn1c2ccccc2n2c(=O)c3cc([N+](=O)[O-])ccc3c(C#N)c12` was > 100 µM (inactive)

Form field GI50, entry `O=C1c2ccccc2C(=O)c2c(Nc3cc4c5c(ccc6c7ccc8c9c(cc(Nc%10cccc%11c%10C(=O)c%10ccccc%10C%11=O)c(c3c56)c97)-c3ccccc3C8=O)C(=O)c3ccccc3-4)cccc21` : 24.6 µM (inactive)

// field: GI50; key: `O=C1c2ccccc2-c2nc3ccc(O)cc3n21` ; value = > 100 µM (inactive)

The value of GI50 measured for the molecule `CCOC(=O)O/C(=C\c1ccc(OC)cc1)c1c(OC(=O)OCC)n(C(=O)OCC)c2ccccc12` turned out to be 35.7 µM (inactive)

# GI50 (molecule: O=C1N=C(c2ccccc2)OC1C(=O)c1ccccc1 (configuration not stated) ) is 46.5 µM (inactive)

Record `CCOC(=O)/N=C(\N)SCc1ccccc1` , field GI50: > 100 µM (inactive)

# GI50 (molecule: NCCC1CN(C(=O)OCc2ccccc2)c2ccccc21 (configuration not stated) ) is 9.48 µM (inactive)

GET /value?item= `CCOC(=O)[C@@]12C(C)=CC(=O)O[C@]1(C)C[C@H]2C#N` &field=GI50 returns > 100 µM (inactive)

Consider `CO[C@@H]1C[C@H]2[C@@H]3CC[C@H]([C@H](C)CO)[C@@]3(C)CC[C@@H]2[C@@]2(C)CC[C@H]3C[C@]312` . Its measured GI50 is 84.7 µM (inactive)

So, `O=C1C=C(Nc2ccc(Cl)cc2C(=O)c2ccccc2)c2ccccc2C1=O` ? Its GI50 was > 100 µM (inactive)

// GI50 value for `O=c1nc2n(c3nsnc13)CCO2` : > 100 µM (inactive)

----------
Tested on: MDA-N
Assay: NCI tumour cell line growth inhibition, 48 h
Calls of active or inactive are those of the source. Cut-off read from the data, not from the text of the source: active = GI50 up to about 1.1 µM and inactive = higher.
Endpoint label: GI50

Worked examples follow.
Molecule	GI50
COC(OC)(c1ccccc1)C(Br)Br	31.7 µM (inactive)
CCOC(=O)CC[C@H](NC(=O)N[C@H](C)c1ccccc1)C(=O)OCC	18.6 µM (inactive)
O=S1(=O)OCCCOS(=O)(=O)C1Br	> 100 µM (inactive)
CN(CCNC(=O)c1c[nH]c2c1Cc1ccccc1-2)CCNC(=O)c1c[nH]c2c1Cc1ccccc1-2	15.2 µM (inactive)

So for CN1CCOC1(C)CO (configuration not stated) , the logged GI50 turned out to be > 100 µM (inactive)

Reported GI50 ( `OC/C=C/[C@H](OCc1ccccc1)[C@H](/C=C/CO)OCc1ccccc1` ) = 36 µM (inactive)

GET /value?item= O=C1CC(CC(O)[C@@H]2CCCC[C@@H]2O)CC(=O)N1c1ccccc1 (some centres not stated) &field=GI50 returns > 100 µM (inactive)

----------
Test system: RXF 393
Test: NCI tumour cell line growth inhibition, 48 h
Calls of active or inactive are those of the source. No stated cut-off is given here; in the data, active = GI50 up to about 1.1 µM and inactive = higher.
Outcomes you can answer with include only these: active, inactive

Solved entries:
Compound	Class assignment
O=C1C=CC[C@H](/C=C/C[C@@H](O)C[C@H](O)/C=C/c2ccccc2)O1	inactive
CC1=NN(C(=O)CC(=O)Nc2ccccc2Cl)C(=O)C1/N=N\c1ccc(S(=O)(=O)c2ccc(/N=N/C3C(=O)N(C(=O)CC(=O)Nc4ccccc4Cl)N=C3C)cc2)cc1 (stereo not given)	inactive
CNC(=O)/C=C/C1=CN2C(=O)c3ccc(C)c(O)c3NC(OC)C2C1 (stereo not given)	active
O=C(/C=C/c1csc(-c2ccccc2)n1)NCc1ccc(C(=O)NCc2ccccc2)cc1	inactive

Query compound follows.
Tell me the assay call for CSc1nc2c(ncn2C2OC(CO)C(O)C(O)C2O)c(=O)n1C (stereo not given) please.
inactive

----------
System: SR
Assay: NCI tumour cell line growth inhibition, 48 h
Activity calls are given as the source filed them. Cut-off read from the data, not from the text of the source: active = GI50 up to about 1.1 µM and inactive = higher.
Can you answer with just one of these options? y (active), n (inactive)

Recorded results for 6 compounds are shown here.
Compound	Target system	Class assignment
NC(CCCCNC(=O)C(Cc1ccccc1)NC(=O)OCc1ccccc1)C(=O)NC(CCCCNC(=O)C(Cc1ccccc1)NC(=O)OCc1ccccc1)C(=O)NC(CCCCNC(=O)C(Cc1ccccc1)NC(=O)OCc1ccccc1)C(=O)NC(CCCCNC(=O)C(Cc1ccccc1)NC(=O)OCc1ccccc1)C(=O)NC(CCCCNC(=O)C(Cc1ccccc1)NC(=O)OCc1ccccc1)C(=O)NC(CCCCNC(=O)C(Cc1ccccc1)NC(=O)OCc1ccccc1)C(=O)O (configuration not stated)	SR	n
CC(C)(C)OC(=O)CN1CCNCCN(CC(=O)OC(C)(C)C)CCNCC1	SR	n
COc1ccc(C2C(C=O)C(N3CCN(C)CC3)=Nc3nc4ccccc4n32)cc1 (configuration not stated)	SR	y
CC(C)OP(=O)(CCCCCCCCC/C=C/c1ccc2c(c1)OCCOCCOCCOCCO2)OC(C)C	SR	n
O=C(/C=C/c1ccccc1)c1ccccc1	SR	n
CNC(=O)/C=C/C1=CN2C(=O)c3ccc(C)c(O)c3NC(OC)C2C1 (configuration not stated)	SR	y

Consider now this further compound.
For CC(C)c1c(O)ccc2c1CCC1C(C)(C)CCCC21C (configuration not stated) , which call appears in the assay record?
n

----------
System: MCF7
Assay: NCI tumour cell line growth inhibition, 48 h
Active and inactive are the calls of the source. No stated cut-off is given here; in the data, active = GI50 up to about 1.1 µM and inactive = higher. Residues, ends and D or L forms follow the SMILES beside them. *: point of attachment. Boc = CC(C)(C)OC(=O)*; Bz = O=C(c1ccccc1)*
Respond with a class label; see active, inactive

Example entries begin here.
Compound	Class assignment
CC(NC(=O)C(Cc1ccc(OC(=O)c2ccccc2)cc1)NC(=O)OC(C)(C)C)C(=O)NC(Cc1ccccc1)C(=O)NCC(N)=O (stereo unspecified) (Boc-Y(Bz)AFG-NH2; configuration not given here)	inactive
O=C1c2scnc2-c2nccc3c2c1nc1ccccc13 [KUANONIAMINE A]	active
NCCN/C(=N\c1ccccc1)Nc1ccccc1	inactive
CC(=O)Oc1c(OC(C)C)cc(=O)n2ccsc12	inactive
CC(C)/C=N\n1c(N)c(C#N)c(C#N)c1C(C)C	inactive

What call does the record list for CC1CC(C)[C@H](O)C([C@H](O)CC2CC(=O)N(C)C(=O)C2)C1 (stereo partly specified) ?
inactive

How was `Cc1ccc(-c2c(C#N)c(O)n(NS(=O)(=O)c3ccccc3)c(=O)c2C#N)cc1` classified in this test?
inactive

// param item: `COC(=O)c1c(O)ccc2c1c1c(n2Cc2cc(OC)cc(OC)c2)C(=O)c2ccccc2C1` ; yields the recorded call
inactive

Test call for this compound, please: Cn1/c(=N\N=C2\C=C3CCCCC3(C)CC2)sc2ccccc21 (stereo unspecified)
inactive

Hello, I am checking results. What call was entered for `Cc1cc(N(CCC#N)CCC#N)ccc1/C=C1\SC(=S)NC1=O` ?
inactive

Check the results log: what was the call for `O=C1/C(=C/c2cccc([N+](=O)[O-])c2)N=C(c2ccccc2)N1c1nc2ccc(Sc3ccccc3)cc2[nH]1` ?
inactive

Short answer needed: outcome of this test for O=C1NN=C(O)C2C3c4ccccc4C(c4ccccc43)C12 (stereo unspecified) ?
inactive

Hello, I am checking results. What call was entered for `c1csc(-c2ccsc2-c2ccsc2)c1` ?
inactive

Hi team, can someone confirm the assay call for CCSC(=O)N1c2ccc(OC)cc2C=CC1C#N (stereo unspecified) ?
active

GET /call?item= `CC(=O)O[C@H]1CC[C@@]2(C)C(=CC[C@@H]3[C@@H]2CC[C@]2(C)c4c(C)n[nH]c4C[C@@H]32)C1` returns the recorded outcome of this test.
inactive

Hi, sorry to bother you, what did the test record for `O=C1c2ccccc2-c2nc3ccc(O)cc3n21` ?
inactive

What is the recorded call for this compound in the test? `COc1ccc2c(c1)CC[C@@H]1[C@@H]2CC[C@]2(C)/C(=N/OCCN3CCCCC3)CC[C@@H]12`
inactive

Look up the recorded call for `Cn1c2c3ccc(Cl)cc3nc-2c(Cl)c2ccccc21` in this test.
inactive

Per the records of this test, what outcome belongs to `CC(=O)OCc1nc(C#N)c(N)o1` ?
inactive

Please indicate how the test categorized `CCOP(=O)(OCC)/C(=C\n1ccc(=O)[nH]c1=S)C(=O)OC` .
inactive

Check the results log: what was the call for CC(NC(=O)C(N)CC(=O)O)NC(=O)C1CCC1 (stereo unspecified) ?
inactive
